- assay.notes: SK-BR-3 cell growth inhibitors, pilot screen, 24 h, human (AID 572);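 note: compound exposure lasted between 18 and 24 h rather than exactly 24 h; 100% = carrier-treated control wells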
- study.conditions: SK-BR-3 viability, CellTiter-Glo luminescence, at 10 µM, stronger effect = lower value
Can you tell me viability for the items I'm about to list?
Please reply with the bare figure in % and do not write the unit itself.

Ask: Recorded viability of COc1ccc2c(=O)c3c(=O)n(Cc4ccco4)c(-c4cc(OC)c(OC)c(OC)c4)nc3oc2c1 , please.
Result: 67

Ask: Reported viability, molecule Cc1cc(N2CCN(C)CC2)nc(N2CCOCC2)n1 : ____
Result: 105

Ask: What value of measured viability is listed for CC(=O)OCC(=O)[C@@]12OC(C)(C)O[C@@H]1C[C@H]1[C@@H]3C[C@H](F)C4=CC(=O)C=C[C@]4(C)[C@@]3(F)[C@@H](O)C[C@@]12C ?
Result: 104

Ask: // lookup viability for CCCCCn1c(CN2CCN(c3cccc(Cl)c3)CC2)nc2c1c(=O)n(C)c(=O)n2C
Result: 97

Ask: What measured viability goes with O=C(c1ccccc1)c1ccc(N2CCNCC2)cc1 ?
Result: 129

Ask: viability for COC(=O)C1CCN(C(=O)CN2C(=O)NC(CCc3ccccc3)C2=O)CC1 (stereo not given) ?
Result: 119

Ask: Any idea what viability was measured for CCCCC[C@H](O)/C=C/[C@H]1C=CC(=O)[C@@H]1C/C=C\CCCC(=O)O ?
Result: 111

Ask: What does the data say about its viability? Entry: COc1ccc(-c2nnc(SCC(=O)Nc3sc4c(c3C#N)CCC4)n2CC2CCCO2)cc1 (stereo not given)
Result: 89

Ask: What value of measured viability is listed for O=C(Nc1cccc2ncccc12)c1ccc2c(c1)OCCO2 ?
Result: 84

Ask: Any idea what its viability is? The molecule is O=C(NCc1cccnc1)c1ccc(Cl)c(Cl)c1
Result: 89
